- Assayed system: T1, mfGCGR-hFc (cynomolgus monkey (Macaca fascicularis))
- T1 construct: also called mfGCGR-N-terminal hFc
- T1 sequence (chain, as listed by the source limits assumed): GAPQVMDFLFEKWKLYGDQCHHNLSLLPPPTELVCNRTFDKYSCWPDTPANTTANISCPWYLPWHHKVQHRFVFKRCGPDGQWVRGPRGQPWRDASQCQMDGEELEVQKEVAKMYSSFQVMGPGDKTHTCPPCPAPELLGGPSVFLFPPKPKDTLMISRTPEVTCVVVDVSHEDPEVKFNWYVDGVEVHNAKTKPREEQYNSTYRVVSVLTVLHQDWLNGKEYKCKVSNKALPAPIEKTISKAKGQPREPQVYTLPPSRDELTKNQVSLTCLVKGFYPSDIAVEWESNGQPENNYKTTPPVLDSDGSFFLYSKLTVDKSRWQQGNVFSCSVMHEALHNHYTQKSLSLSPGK
- Test summary: SPR Biacore T100, 37C, mAb captured, antigen flowed
Parameter: koff
Answer shape: numeric part, then the unit.

Before answering, review these 2 worked examples.
H4H1331P (antibody, V domains shown, Fully human anti-GCGR antibody; the controls are called isotype-matched hIgG4) VH: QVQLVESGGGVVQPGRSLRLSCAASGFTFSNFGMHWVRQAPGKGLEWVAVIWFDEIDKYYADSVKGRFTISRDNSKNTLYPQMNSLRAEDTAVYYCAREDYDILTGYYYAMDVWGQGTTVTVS VL: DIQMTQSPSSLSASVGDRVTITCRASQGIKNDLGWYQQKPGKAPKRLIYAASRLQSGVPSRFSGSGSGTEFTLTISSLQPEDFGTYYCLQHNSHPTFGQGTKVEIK: 4.12e-05 s⁻¹
H4H1321P (antibody, V domains shown, Fully human anti-GCGR antibody; the controls are called isotype-matched hIgG4) VH: QVQLVESGGGVVQPGRSLRLSCAASGFTFSSYDMHWVRQAPGKGLEWVAVISSDGRDKYYVDSVKGRFTISRDNSKNTLYLQMNSLRAEDTAVYYCAKEMVYYDILTGYHNYYGMDVWGQGTTVTVS VL: DIQMTQSPSSLSASVGDRVTITCRASQGINNYLAWFQQKPGKAPKSLIHTASSLQSGVPSKFSGSGSGTDFTLTISSLQPEDFATYYCQQYNTYPLTFGGGTKVEIK: 7.59e-05 s⁻¹

Now look at this entry.
INPUT: Could you tell me which koff is on file for H4H1328P (antibody, V domains shown, Fully human anti-GCGR antibody; the controls are called isotype-matched hIgG4) VH: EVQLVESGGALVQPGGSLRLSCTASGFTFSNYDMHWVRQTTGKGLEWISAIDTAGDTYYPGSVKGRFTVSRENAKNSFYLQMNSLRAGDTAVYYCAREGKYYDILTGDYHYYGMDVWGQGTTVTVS VL: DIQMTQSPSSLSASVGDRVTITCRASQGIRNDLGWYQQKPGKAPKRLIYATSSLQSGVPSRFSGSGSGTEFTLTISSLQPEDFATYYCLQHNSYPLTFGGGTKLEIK ?
OUTPUT: 7.17e-05 s⁻¹
